# System: NCI/ADR-RES
# protocol details: NCI tumour cell line growth inhibition, 48 h
Activity calls are given as the source filed them. Cut-off read from the data, not from the text of the source: active = GI50 up to about 1.1 µM and inactive = higher.
measured attribute: GI50

These recorded examples may help you get a feel for the data.
- molecule: "CSc1nc(SC)c2cnn(CC3CO3)c2n1 (stereo unspecified)"
  system: "NCI/ADR-RES"
  GI50: "13.8 µM (inactive)"
- molecule: "Cc1cccc2c1Oc1ncccc1C2NC(=O)CN(C)C (stereo unspecified)"
  system: "NCI/ADR-RES"
  GI50: "> 10 µM (inactive)"
- molecule: "O=[N+]([O-])c1cccc(-c2ncc3c(n2)-c2ccccc2C3)c1"
  system: "NCI/ADR-RES"
  GI50: "> 100 µM (inactive)"
- molecule: "Nc1ccc2nc(N)n[n+]([O-])c2c1"
  system: "NCI/ADR-RES"
  GI50: "> 100 µM (inactive)"
- molecule: "Cc1ccc(Cl)c2c(=O)c3ccc(N)cc3sc12"
  system: "NCI/ADR-RES"
  GI50: "15.1 µM (inactive)"

Bench note: what GI50 did COC(=O)C1(C(=O)OC)CC(=O)c2c(OC(=O)c3cccc(OC)c3C#N)ccc(OC(=O)c3cccc(OC)c3C#N)c2C1 show? > 100 µM (inactive)

* * *

# Test system: Malme-3M
# protocol details: NCI tumour cell line growth inhibition, 48 h
Activity calls are given as the source filed them. Cut-off read from the data, not from the text of the source: active = GI50 up to about 1.1 µM and inactive = higher.
// allowed return values: active, inactive

Check out these entries, answers already filled in.
- molecule: "Cc1cccc(/C=N/NC(=S)N2CCCC2)n1"
  system: "Malme-3M"
  category label: "active"
- molecule: "COC1OC(OC)C2C(c3c(C)cc(C)cc3C)=NOC12 (stereo not drawn)"
  system: "Malme-3M"
  category label: "inactive"

Please state the recorded outcome for this molecule: COC(=O)CNC(=O)c1cc(C)cc2c1Oc1c(cc(C)cc1C(=O)NCC(=O)OC)S2 inactive

* * *

# Test system: MCF7
# protocol details: NCI tumour cell line growth inhibition, 48 h
Active and inactive are the calls of the source. Cut-off read from the data, not from the text of the source: active = GI50 up to about 1.1 µM and inactive = higher.
// allowed return values: active, inactive

Check out these entries, answers already filled in.
- compound: "O=C(Nc1nc(C23CC4CC(CC(C4)C2)C3)cs1)c1cc2cc(Br)cc(Br)c2oc1=O"
  category label: "inactive"
- compound: "CCOC(=O)N1CCN(c2ccc3ccc(N)nc3n2)CC1"
  category label: "inactive"
- compound: "COc1ccc(-c2nc3cc(F)ccc3s2)cc1O"
  category label: "active"

Please state the recorded outcome for this compound: Clc1ccc2c(c1)N(CCCN1CCCC13CCCCC3)c1ccccc1S2 inactive

* * *

# Test system: OVCAR-3
# protocol details: NCI tumour cell line growth inhibition, 48 h
Active and inactive are the calls of the source. No stated cut-off is given here; in the data, active = GI50 up to about 1.1 µM and inactive = higher.
// allowed return values: t for active, f for inactive

- compound: "NCCNCC(O)CO (centres undefined)"
  system: "OVCAR-3"
  category label: "f"
- compound: "CCCCC1C=Cn2c(=O)oc3c(OC(C)C)c(OC(C)C)c(O)c1c32 (centres undefined)"
  system: "OVCAR-3"
  category label: "f"
- compound: "CCOC(=O)c1cn(CC)c(=O)n2c1nc1ccccc12"
  system: "OVCAR-3"
  category label: "f"
- compound: "O=C(NC12CC3CC(CC(C3)C1)C2)n1cnc2cncnc21"
  system: "OVCAR-3"
  category label: "f"
- compound: "CCCCCc1c(CCCC)c(=O)[nH]c2cc(CNCC(OC)OC)ccc12"
  system: "OVCAR-3"
  category label: "f"
- compound: "O=C(CCC(=O)Nc1ccc(Cl)cc1)CC(=O)c1ccc(F)cc1"
  system: "OVCAR-3"
  category label: "f"
- compound: "Fc1cc(-c2ncc(Cl)cc2Cl)c2cccccc1-2"
  system: "OVCAR-3"
  category label: "f"
- compound: "CCOC(=O)c1c(SC(=O)/C=C/c2ccccc2)n(-c2ccccc2)c(=S)n(-c2ccccc2)c1=O"
  system: "OVCAR-3"
  category label: "f"

Please state the recorded outcome for this compound: CSc1nc(SC)c2cnn(CC3CO3)c2n1 (centres undefined) f

Please state the recorded outcome for this compound: N#Cc1c(N)nc(Sc2ccccc2N)c(C#N)c1-c1ccc(Cl)cc1 f

Please state the recorded outcome for this compound: CC(Oc1ccc(OCC2CCCCC2)cc1)C(=O)OCC(=O)c1ccc(-c2ccccc2)cc1 (centres undefined) f

Please state the recorded outcome for this compound: CO/N=C(\C(=O)N(C)n1cnnc1)c1csc(NC(c2ccccc2)(c2ccccc2)c2ccccc2)n1 f

Please state the recorded outcome for this compound: CC1C(OS(=O)(=O)c2ccc3nc(S)sc3c2)CC2C3(C)CCC2(C(C)C(=O)O)C(O)C13 (centres undefined) f

Please state the recorded outcome for this compound: Cc1ccc(S(=O)(=O)N/N=C(\CCN2CCCC2)CC(c2ccccc2)c2c(O)c3ccccc3oc2=O)cc1 (centres undefined) f

Please state the recorded outcome for this compound: O=c1[nH]c(=O)n(C2CC(O)C(CO)O2)c2nc3cc4ccccc4cc3nc12 (centres undefined) f

Please state the recorded outcome for this compound: O=C1CC(c2cccc(F)c2)Nc2cc3c(cc21)OCO3 (centres undefined) t

Please state the recorded outcome for this compound: O=C(Nc1ccccc1F)c1cc2ccc(O)cc2o/c1=N\c1cccc(C(F)(F)F)c1 f

Please state the recorded outcome for this compound: COc1ccc(-c2nc3cc(F)ccc3s2)cc1O f

Please state the recorded outcome for this compound: c1ccc(C(c2ccccc2)[P+](c2ccccc2)(c2ccccc2)c2ccccc2)cc1 t
